- Test system: EKVX
- testSummary: NCI tumour cell line growth inhibition, 48 h
The source made the active and inactive calls. Rule as the data show it: active = GI50 up to about 1.1 µM and inactive = higher.
endpointLabel: GI50

molecule	GI50
Cc1c(S(=O)(=O)c2ccccc2)c(N)n(CCN(C)C)c1C	> 100 µM (inactive)
CC(=O)NNc1nc(C)c(C(/C=C/c2ccc(Cl)cc2)=N\NS(=O)(=O)c2ccc(C)cc2)s1	> 100 µM (inactive)
COC(=O)C(=O)Nc1cc2c3c(c1)Oc1cccc4c1C3(C)c1c(cccc1O2)O4	> 82.6 µM (inactive)
CN(C)Cc1ccc(C(C)(C)C)cc1-c1cc(C(C)(C)C)ccc1CN(C)C	39.2 µM (inactive)
CCOC(=O)c1sc2nc(SC)nc3c2c1NC(=O)CN3c1cccc(F)c1	46 µM (inactive)

`CSc1ccc2c(cc1=O)[C@@H](NC(=O)c1cccc([N+](=O)[O-])c1)CCc1cc(O)c(O)c(O)c1-2` yielded GI50 of 50.9 µM (inactive)

Data point: CN1CCOC1c1ccccc1O (stereo not drawn) ; GI50 = > 100 µM (inactive)

Field GI50 (entry `CN1C2CCC1/C(=C/c1cccc3c1OCO3)C(=O)/C2=C\c1cccc2c1OCO2` ) reads > 100 µM (inactive)

// data source = ChEMBL document CHEMBL1201862
